- assay.method.text: CCTE_Simmons_MITO_max_resp_rate: CCTE's HepG2 Seahorse XF Respirometric Screening Assay at Maximal Respiratory State [uncoupled], Simmons Lab (AID 2284002)
- measurement.context: actives raise or lower the signal
Activity calls are given as the source filed them. How the source made its calls: active means hit-call score of the fitted dose curve at least 0.9, where 1 is the maximum; inactive means score below 0.9.
Outcome codes: active, inactive

• NC(=O)N1C(=O)C(C(=O)c2cc(Cl)cs2)c2cc(F)c(Cl)cc21 (stereo unspecified) = active
• CCc1nn(C2CCCCC2)c2cc(C3(C#N)CCC(C(=O)O)CC3)ccc12 (stereo unspecified) = active
• CN1CCN(c2ccccc2/C=C2\SCCN(c3ccc(Cl)c(Cl)c3)C2=O)CC1 = inactive
• NC(=O)N(O)[C@@H]1C=C[C@H](Oc2cccc(Oc3ccc(F)cc3)c2)C1 = active
• CCCCCCCCCCCCN1CCCC1=O = active
• Oc1cc2ccccc2c2ccccc12 = inactive

* * *

- Read-out: Paternally Expressed 10 (PEG10), PEG10 (gene 23089)
- assay.method.text: LTEA_HepaRG_PEG10: Life Technologies and Expression Analysis (LTEA) Assay for Paternally Expressed 10 (PEG10) using HepaRG (AID 2283520)
- measurement.context: mRNA level, 48 h; actives raise or lower the signal
The source made the active and inactive calls. How the source made its calls: active means hit-call score of the fitted dose curve at least 0.9, where 1 is the maximum; inactive means score below 0.9.
Outcome codes: yes = active, no = inactive

* CC(C)(C)c1cccc(C(C)(C)C)c1O | no
* CCCCCCCCCCCCc1ccccc1S(=O)(=O)O | no
* CC(C)(C)c1ccc(O)c(C(C)(C)C)c1 | no
* CCCCCCCC(=O)O | no
* CCCCC(CC)COC(=O)CCCCC(=O)OCC(CC)CCCC (stereo not drawn) | no
* c1ccc2c(c1)ccc1ccccc12 | no
* ClC1=C(Cl)C(Cl)(Cl)C(Cl)=C1Cl | no
* CCOC(=O)CC(O)(CC(=O)OCC)C(=O)OCC | no
* CC[C@H](c1ccc(O)cc1)[C@@H](CC)c1ccc(O)cc1 | no
* C#C[C@]1(O)CC[C@H]2[C@@H]3CCC4=CC(=O)CC[C@@H]4[C@H]3CC[C@@]21C | yes
* CCC(=C(c1ccc(O)cc1)c1ccc(OCCN(C)C)cc1)c1ccccc1 | no
* CC(=O)CC(C)(C)O | no
* O=c1c(-c2ccc(O)cc2)coc2cc(O)ccc12 | no

* * *

- target: human Dopamine Receptor D2 (DRD2), DRD2 (gene 1813) (UniProt P14416)
- Sequence (P14416 whole entry, looked up): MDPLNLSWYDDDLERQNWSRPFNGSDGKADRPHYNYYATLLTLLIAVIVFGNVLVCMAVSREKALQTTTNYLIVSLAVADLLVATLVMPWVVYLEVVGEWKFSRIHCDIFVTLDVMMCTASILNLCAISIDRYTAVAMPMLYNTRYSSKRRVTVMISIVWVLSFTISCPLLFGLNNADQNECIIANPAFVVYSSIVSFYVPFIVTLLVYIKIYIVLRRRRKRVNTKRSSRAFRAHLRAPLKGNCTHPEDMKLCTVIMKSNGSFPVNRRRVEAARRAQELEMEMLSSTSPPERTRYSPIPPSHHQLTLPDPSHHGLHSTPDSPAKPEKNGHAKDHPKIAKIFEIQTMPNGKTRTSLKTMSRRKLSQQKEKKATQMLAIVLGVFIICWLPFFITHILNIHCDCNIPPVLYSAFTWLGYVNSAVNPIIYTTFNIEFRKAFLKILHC
- assay.method.text: NVS_GPCR_hDRD2s: NovaScreen (NVS) G Protein-Coupled Receptor Assay for human Dopamine Receptor D2 (DRD2) (AID 2283266)
Records with an inconclusive call do not appear. Calls of active or inactive are those of the source. The calls were made as follows: active = hit-call score of the fitted dose curve at least 0.9, where 1 is the maximum; inconclusive = response in the unintended direction; inactive = score below 0.9.
quantity.name: AC50

• CC[C@H](c1ccc(O)cc1)[C@@H](CC)c1ccc(O)cc1 = 6.99 µM (active)
• CCN(CC)CCNc1ccc(CNC=O)c2sc3ccc(OC)cc3c(=O)c12 = 18.8 µM (active)
• CCC(=C(c1ccc(O)cc1)c1ccc(OCCN(C)C)cc1)c1ccccc1 = 0.647 µM (active)
• CC(=O)NC1(c2cccc(F)c2)CCN(CC[C@@]2(c3ccc(Cl)c(Cl)c3)CN(c3ccccc3)C(=O)CO2)CC1 = 11 µM (active)
• CCCOc1sc(C(=O)N2CCC(c3cc(CN)ccc3F)CC2)c(C)c1Br = 9.42 µM (active)
• CCCCCCCCCCCCc1ccccc1S(=O)(=O)O = 18.5 µM (active)

* * *

- assay.method.text: ATG_PXRE_CIS: Attagene CIS-FACTORIAL HepG2 Assay for human Pregnane X Receptor Element (PXRE) (AID 2282957)
- measurement.context: HepG2 Attagene CIS-FACTORIAL PXRE reporter, mRNA; actives raise or lower the signal
Activity calls are given as the source filed them. The calls were made as follows: active = hit-call score of the fitted dose curve at least 0.9, where 1 is the maximum; inactive = score below 0.9.
Outcome codes: 1.0 (active), 0.0 (inactive)

- O=C(OCCOCCOC(=O)c1ccccc1)c1ccccc1: 0.0
- O=c1c(-c2ccc(O)cc2)coc2cc(O)ccc12: 0.0
- c1ccc2c(c1)ccc1ccccc12: 1.0
- CC[C@H](C)[C@@H](C(=O)O)n1sc2ccccc2c1=O: 0.0
- c1ccc2c(c1)Cc1ccccc1-2: 1.0
- O=[N+]([O-])c1ccc(O)cc1: 0.0
- CCCCC[C@H](O)CC(=O)CCc1ccc(O)c(OC)c1: 1.0
- CC(C)(C)CC(C)(C)c1ccc(O)c(-n2nc3ccccc3n2)c1: 1.0
- O=C(/C=C/c1ccc(O)cc1)CC(=O)/C=C/c1ccc(O)cc1: 0.0
- CC(=O)NC1(c2cccc(F)c2)CCN(CC[C@@]2(c3ccc(Cl)c(Cl)c3)CN(c3ccccc3)C(=O)CO2)CC1: 1.0
- CC(O)C(=O)O (centres undefined): 0.0
- CCCCCCCCOC(=O)CCCCCCCCC(=O)OCCCCCCCC: 0.0
- COCC(C)OCC(C)O (centres undefined): 0.0
- CCc1nn(C2CCCCC2)c2cc(C3(C#N)CCC(C(=O)O)CC3)ccc12 (centres undefined): 0.0

* * *

- target: human Casein Kinase 1-delta (CK1D), CSNK1D (gene 1453) (UniProt P48730)
- Sequence (P48730 whole entry, looked up): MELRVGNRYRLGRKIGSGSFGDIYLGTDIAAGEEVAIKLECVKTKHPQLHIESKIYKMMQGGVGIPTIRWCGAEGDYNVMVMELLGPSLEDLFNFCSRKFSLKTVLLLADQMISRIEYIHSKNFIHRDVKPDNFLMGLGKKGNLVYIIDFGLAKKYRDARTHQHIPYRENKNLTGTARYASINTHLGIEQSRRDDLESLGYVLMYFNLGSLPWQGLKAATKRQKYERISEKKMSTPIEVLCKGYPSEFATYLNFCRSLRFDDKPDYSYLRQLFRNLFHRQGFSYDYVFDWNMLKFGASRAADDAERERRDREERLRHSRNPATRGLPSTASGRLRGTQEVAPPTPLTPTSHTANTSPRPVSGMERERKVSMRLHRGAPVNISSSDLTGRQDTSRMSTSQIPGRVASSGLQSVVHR
- assay.method.text: NVS_ENZ_hCK1D: NovaScreen (NVS) Enzymatic Assay for human Casein Kinase 1-delta (CK1D) (AID 2283148)
Inconclusive results are not listed. Activity calls are given as the source filed them. How the source made its calls: active means hit-call score of the fitted dose curve at least 0.9, where 1 is the maximum; inconclusive means response in the unintended direction; inactive means score below 0.9.
Outcome codes: Yes = active, No = inactive

* COCC(C)OCC(C)O (stereo unspecified) | No
* CCN(CC)CCNc1ccc(CNC=O)c2sc3ccc(OC)cc3c(=O)c12 | Yes
* O=c1c(-c2ccc(O)cc2)coc2cc(O)ccc12 | No
* O=C(O)Cc1cc(I)c(Oc2cc(I)c(O)c(I)c2)c(I)c1 | No
* CCCCCCCCCCCCc1ccccc1S(=O)(=O)O | Yes
* O=C(O)c1ccccc1C(c1ccc(O)cc1)c1ccc(O)cc1 | No

* * *

- Read-out: Plasminogen activator inhibitor-1 (PAI1), SERPINE1 (gene 5054)
- assay.method.text: BSK_hDFCGF_PAI1: BioMAP Diversity Plus: hDFCGF Assay for Plasminogen activator inhibitor-1 (PAI1) Biomarker Activity (AID 2283066)
- measurement.context: primary human foreskin fibroblasts; actives raise or lower the signal
The source made the active and inactive calls. How the source made its calls: active means hit-call score of the fitted dose curve at least 0.9, where 1 is the maximum; inactive means score below 0.9.
quantity.name: AC50

• OC1CCC(C2CCCCC2)CC1 (stereo not drawn) = inactive
• Oc1cccc(O)c1 = inactive
• CC[C@H](c1ccc(O)cc1)[C@@H](CC)c1ccc(O)cc1 = 25 µM (active)

* * *

- assay.method.text: BSK_KF3CT_SRB: Viability Assessment in the BioMAP Diversity Plus: KF3CT Assay (AID 2283069);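 further: total protein by sulforhodamine B staining as a cytotoxicity measure; read 24 h after compound addition; fitted for both signal gain and loss against DMSO baseline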
- measurement.context: primary human keratinocytes with fibroblasts
- Method: BSK_KF3CT is a cell-based, multiplexed-readout assay that uses keratinocytes and foreskin fibroblasts, a human skin primary cell co-culture, with measurements taken at 24 hours after chemical dosing in a 96-well plate.BSK_KF3CT_SRB is an assay component measured in the BSK_KF3CT assay. It measures 0.1% sulforhodamine related to cell death using Sulforhodamine staining technology.Data from the assay component BSK_KF3CT_SRB was analyzed into 1 assay endpoint. […]
Activity calls are given as the source filed them. How the source made its calls: active means hit-call score of the fitted dose curve at least 0.9, where 1 is the maximum; inactive means score below 0.9.
quantity.name: AC50

• CC[C@H](c1ccc(O)cc1)[C@@H](CC)c1ccc(O)cc1 = 32.5 µM (active)
• CCCCCCCCOC(=O)CCCCCCCCC(=O)OCCCCCCCC = inactive
• CCC(=C(c1ccc(O)cc1)c1ccc(OCCN(C)C)cc1)c1ccccc1 = 8.81 µM (active)
• Cc1oc(-c2ccccc2)nc1CCOc1ccc(C[C@H](Nc2ccccc2C(=O)c2ccccc2)C(=O)O)cc1 = 4.3 µM (active)
• CCCCCCCCCCCCCCCS(=O)(=O)Oc1ccccc1 = inactive
• NC(=O)N(O)[C@@H]1C=C[C@H](Oc2cccc(Oc3ccc(F)cc3)c2)C1 = inactive
• CN1CCN(c2ccccc2/C=C2\SCCN(c3ccc(Cl)c(Cl)c3)C2=O)CC1 = 30.8 µM (active)
• COC(=O)CCCCC(=O)OC = inactive
• COc1ccc([N+](=O)[O-])cc1N = inactive
• CCCCCCCCC(=O)O = inactive
• CCN(CC)CCNc1ccc(CNC=O)c2sc3ccc(OC)cc3c(=O)c12 = 26.4 µM (active)

* * *

- assay.method.text: BSK_3C_VCAM1: BioMAP Diversity Plus: 3C Assay for Vascular cell adhesion molecule 1 (VCAM1) Biomarker Activity (AID 2282999)
- measurement.context: BioMAP 3C HUVEC, VCAM1 ELISA, cytokine-stimulated; actives raise or lower the signal
The source made the active and inactive calls. Rule for the calls: active = hit-call score of the fitted dose curve at least 0.9, where 1 is the maximum; inactive = score below 0.9.
quantity.name: AC50

• CCCCCCCCCCCCCC[N+](C)(C)C = 4.71 µM (active)
• CC(C)(C)CC(C)(C)c1ccc(O)c(-n2nc3ccccc3n2)c1 = inactive
• O=C(OCCOCCOC(=O)c1ccccc1)c1ccccc1 = inactive
• COc1ccc([N+](=O)[O-])cc1N = inactive
• CC[C@H](c1ccc(O)cc1)[C@@H](CC)c1ccc(O)cc1 = 34.2 µM (active)
• CCCCCCCCOC(=O)CCCCCCCCC(=O)OCCCCCCCC = inactive
• CCC(C)(C)C1CCC(O)CC1 (stereo not drawn) = inactive
• c1ccc2cc3c(ccc4ccccc43)cc2c1 = inactive
• O=[N+]([O-])c1ccc(O)cc1 = inactive
• CCCOc1sc(C(=O)N2CCC(c3cc(CN)ccc3F)CC2)c(C)c1Br = 7.38 µM (active)
• CC1=C(/C=C/C(C)=C/C=C/C(C)=C/C(=O)O)C(C)(C)CCC1 = 27.9 µM (active)
• CC[C@H](C)[C@@H](C(=O)O)n1sc2ccccc2c1=O = inactive
• Nc1cccc2c(N)cccc12 = inactive
• Oc1cc2ccccc2c2ccccc12 = 8.07 µM (active)
• CCCCCCCCCCCCc1ccccc1S(=O)(=O)O = inactive
• CCCCCCCCC(=O)O = inactive
• CCCCOCCO = inactive
• CC#C[C@]1(O)CC[C@H]2[C@@H]3CCC4=CC(=O)CCC4=C3[C@@H](c3ccc(N(C)C)cc3)C[C@@]21C = 32.2 µM (active)
• CC(=O)CC(C)(C)O = inactive
• CCCCCCCC(=O)O = inactive
• CCCCCCCCCCCCN1CCCC1=O = 35.2 µM (active)
• NC(=O)N1C(=O)C(C(=O)c2cc(Cl)cs2)c2cc(F)c(Cl)cc21 (stereo not drawn) = inactive
• C[C@@H]1C[C@H]2[C@@H]3CCC4=CC(=O)C=C[C@]4(C)[C@@]3(F)[C@@H](O)C[C@]2(C)[C@@]1(O)C(=O)COP(=O)(O)O = inactive
• OC1CCCCC1 = inactive
• O=C(O)Cc1cc(I)c(Oc2cc(I)c(O)c(I)c2)c(I)c1 = inactive
• CN(C)C=O = inactive
• CCCCCCC(=O)O = inactive
• CC(O)CO (stereo not drawn) = inactive
